From: ChEMBL document CHEMBL4739716

# pEC50 annotations
# Target Or Test System: Probable G-protein coupled receptor 139 (Homo sapiens, UniProt Q6DWJ6)
# Sequence (Q6DWJ6 whole entry): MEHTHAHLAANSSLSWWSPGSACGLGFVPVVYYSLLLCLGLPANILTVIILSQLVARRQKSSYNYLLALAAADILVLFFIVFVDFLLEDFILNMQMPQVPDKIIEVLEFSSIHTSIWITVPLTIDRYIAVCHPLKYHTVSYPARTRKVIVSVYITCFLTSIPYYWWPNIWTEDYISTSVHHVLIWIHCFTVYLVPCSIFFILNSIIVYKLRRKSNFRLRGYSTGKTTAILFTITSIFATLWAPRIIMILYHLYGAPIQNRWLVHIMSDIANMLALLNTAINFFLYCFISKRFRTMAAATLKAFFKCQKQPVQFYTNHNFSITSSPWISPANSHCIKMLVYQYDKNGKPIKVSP
# Assay: Agonist activity at human GPR139 expressed in CHO-K1 cells assessed as increase in calcium flux by calcium 5 dye based FLIPR assay
# Type: functional, cell-based
pEC50: −log10 of the molar value.
Property Label: pEC50

- O=C(Cn1nc2cccnn2c1=O)NC1(c2ccc(Cl)cc2)CC1: ≤ 7.00
- Cc1ccc([C@H](C)NC(=O)Cn2nc3c(C4CCN(C)C4)cccn3c2=O)cc1 (stereo partly drawn): ≤ 7.00
- COc1cccc2nn(CC(=O)N[C@@H](C)c3ccc(OC(F)(F)F)cc3)c(=O)n12: > 9.00
- Cc1ccc2nn(CC(=O)N[C@@H](C)c3ccc(Cl)c(F)c3)c(=O)n2n1: > 9.00
- C[C@H](NC(=O)Cn1nc2ccc(C#N)cn2c1=O)c1ccc(Cl)c(F)c1: > 9.00
- C[C@H](NC(=O)Cn1nc2ccccn2c1=O)c1ccc(Cl)c(Cl)c1: > 9.00
- CC1COCCN1c1cccc2nn(CC(=O)N[C@@H](C)c3ccc(Cl)c(F)c3)c(=O)n12 (stereo partly drawn): > 9.00
- Cc1ccn2c(=O)n(CC(=O)N[C@@H](C)c3ccc(Cl)c(F)c3)nc2c1: > 9.00
